Target: OATP2B1 (Homo sapiens)
Sequence (O94956 whole entry): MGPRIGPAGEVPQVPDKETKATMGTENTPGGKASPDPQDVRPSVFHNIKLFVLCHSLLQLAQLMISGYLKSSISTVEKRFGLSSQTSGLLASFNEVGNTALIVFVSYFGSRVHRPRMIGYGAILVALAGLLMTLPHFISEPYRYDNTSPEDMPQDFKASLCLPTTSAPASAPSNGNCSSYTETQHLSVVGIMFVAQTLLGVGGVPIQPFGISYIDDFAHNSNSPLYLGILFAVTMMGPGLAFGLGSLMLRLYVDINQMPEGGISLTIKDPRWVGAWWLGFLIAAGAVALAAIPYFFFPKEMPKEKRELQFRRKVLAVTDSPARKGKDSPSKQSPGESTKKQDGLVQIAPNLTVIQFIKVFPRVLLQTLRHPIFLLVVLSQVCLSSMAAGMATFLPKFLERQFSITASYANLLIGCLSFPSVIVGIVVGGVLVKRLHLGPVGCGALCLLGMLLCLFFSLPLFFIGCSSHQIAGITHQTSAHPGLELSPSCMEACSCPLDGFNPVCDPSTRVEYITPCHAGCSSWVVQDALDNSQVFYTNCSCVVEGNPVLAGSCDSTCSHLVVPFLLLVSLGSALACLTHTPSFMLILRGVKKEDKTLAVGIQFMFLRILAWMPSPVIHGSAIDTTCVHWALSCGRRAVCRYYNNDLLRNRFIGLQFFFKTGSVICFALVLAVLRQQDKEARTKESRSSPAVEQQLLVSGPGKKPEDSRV
Conditions: 20 μM
endpoint_name: classification as OATP2B1 inhibitor/stimulator (single-point)

| molecule | result |
| --- | --- |
| CC(=O)[C@H]1CC[C@H]2[C@@H]3CCC4=CC(=O)CC[C@]4(C)[C@H]3CC[C@]12C [progesterone, Progesterone] | stimulate |
| C[C@]12CC[C@H]3[C@@H](CCC4=CC(=O)CC[C@@]43C)[C@@H]1CC[C@@H]2O [testosterone, Testosterone] | stimulate |
| CC(NCCC(c1ccccc1)c1ccccc1)c1ccccc1 (stereo not shown) [fendiline, Fendiline] | stimulate |

###

Tested on: OATP1B1, OATP1B3, and OATP2B1
Assay: Classification of specific and general OATP inhibitors
Conditions: 20 μM, inhibitor = at least 50% inhibition
endpoint_name: OATP inhibitor classification based on single-point inhibition assays

| compound_smiles | assayed_system | result |
| --- | --- | --- |
| COC(=O)N[C@H](C(=O)N[C@@H](Cc1ccccc1)[C@@H](O)CN(Cc1ccc(-c2ccccn2)cc1)NC(=O)[C@@H](NC(=O)OC)C(C)(C)C)C(C)(C)C | OATP1B1, OATP1B3, and OATP2B1 | general OATP inhibitors |
| O=C(O)c1cc(/N=N/c2ccc(S(=O)(=O)Nc3ccccn3)cc2)ccc1O | OATP1B1, OATP1B3, and OATP2B1 | general OATP inhibitors |
